- System: UniProtKB P51451
- Sequence (P51451 whole entry, species assumed): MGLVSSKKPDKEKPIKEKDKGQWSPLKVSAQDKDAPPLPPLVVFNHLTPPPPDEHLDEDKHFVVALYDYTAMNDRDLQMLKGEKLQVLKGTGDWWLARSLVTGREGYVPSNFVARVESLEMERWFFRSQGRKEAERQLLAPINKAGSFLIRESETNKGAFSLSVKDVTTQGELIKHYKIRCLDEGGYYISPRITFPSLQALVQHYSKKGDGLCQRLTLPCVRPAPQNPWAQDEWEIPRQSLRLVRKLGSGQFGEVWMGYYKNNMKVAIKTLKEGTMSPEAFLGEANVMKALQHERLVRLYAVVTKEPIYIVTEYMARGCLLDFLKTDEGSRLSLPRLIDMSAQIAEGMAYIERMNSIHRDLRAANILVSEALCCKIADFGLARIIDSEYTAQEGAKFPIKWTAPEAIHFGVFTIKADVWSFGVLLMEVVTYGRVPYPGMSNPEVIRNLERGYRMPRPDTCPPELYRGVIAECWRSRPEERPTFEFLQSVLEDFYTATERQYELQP
pIC50: −log10 of the molar value.

| Compound | pIC50 |
| --- | --- |
| CC(C)(C=C(C#N)C(=O)N1CCC[C@@H](n2nc(-c3ccc(Oc4ccccc4)cc3F)c3c(N)ncnc32)C1)N1CCN(C2COC2)CC1 (mixture of isomers) | 8.20 |

====

- System: UniProtKB Q15303
- Sequence (Q15303 26-1308, species assumed): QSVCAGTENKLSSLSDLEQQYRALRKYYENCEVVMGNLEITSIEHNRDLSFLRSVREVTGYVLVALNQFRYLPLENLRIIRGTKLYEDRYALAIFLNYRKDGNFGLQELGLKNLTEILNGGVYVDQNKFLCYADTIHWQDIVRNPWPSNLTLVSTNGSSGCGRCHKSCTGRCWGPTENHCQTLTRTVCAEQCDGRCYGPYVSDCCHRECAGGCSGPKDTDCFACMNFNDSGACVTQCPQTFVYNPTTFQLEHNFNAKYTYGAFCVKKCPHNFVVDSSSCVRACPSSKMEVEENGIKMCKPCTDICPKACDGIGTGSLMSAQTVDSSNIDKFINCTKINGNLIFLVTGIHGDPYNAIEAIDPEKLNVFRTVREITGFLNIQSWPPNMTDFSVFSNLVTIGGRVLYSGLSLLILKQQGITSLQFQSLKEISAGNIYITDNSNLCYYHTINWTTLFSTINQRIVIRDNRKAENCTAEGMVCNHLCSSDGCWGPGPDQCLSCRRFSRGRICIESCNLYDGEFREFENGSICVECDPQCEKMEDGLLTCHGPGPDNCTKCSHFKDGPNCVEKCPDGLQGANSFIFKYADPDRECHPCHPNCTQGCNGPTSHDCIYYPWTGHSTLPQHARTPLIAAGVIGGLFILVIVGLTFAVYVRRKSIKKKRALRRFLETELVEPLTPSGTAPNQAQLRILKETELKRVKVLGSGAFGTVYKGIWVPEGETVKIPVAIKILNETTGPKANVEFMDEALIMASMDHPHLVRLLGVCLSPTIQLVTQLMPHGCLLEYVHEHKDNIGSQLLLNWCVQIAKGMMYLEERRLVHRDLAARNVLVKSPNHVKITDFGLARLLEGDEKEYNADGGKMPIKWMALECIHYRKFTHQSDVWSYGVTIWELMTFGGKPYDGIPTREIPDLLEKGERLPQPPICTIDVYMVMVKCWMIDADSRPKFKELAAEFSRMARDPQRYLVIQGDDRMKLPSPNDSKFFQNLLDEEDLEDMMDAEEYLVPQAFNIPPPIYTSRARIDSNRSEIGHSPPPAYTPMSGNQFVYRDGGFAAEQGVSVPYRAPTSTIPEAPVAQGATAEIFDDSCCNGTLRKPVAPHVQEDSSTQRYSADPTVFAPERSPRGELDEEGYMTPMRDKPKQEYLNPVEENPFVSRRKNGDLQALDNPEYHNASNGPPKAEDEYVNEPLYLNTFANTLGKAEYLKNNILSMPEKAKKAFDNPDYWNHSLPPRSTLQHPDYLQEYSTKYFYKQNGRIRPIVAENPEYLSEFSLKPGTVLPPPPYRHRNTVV

| Compound | System | IC50 / nM |
| --- | --- | --- |
| CC(C)(C=C(C#N)C(=O)N1CCC[C@@H](n2nc(-c3ccc(Oc4ccccc4)cc3F)c3c(N)ncnc32)C1)N1CCN(C2COC2)CC1 (mixture of isomers) | UniProtKB Q15303 | 11 |

Values compiled from patent US20250108054A1.
